# TARGET: mTOR (human recombinant aa mTOR 1360-2549) (Homo sapiens (Human))
# Sequence (P42345 1360-2549): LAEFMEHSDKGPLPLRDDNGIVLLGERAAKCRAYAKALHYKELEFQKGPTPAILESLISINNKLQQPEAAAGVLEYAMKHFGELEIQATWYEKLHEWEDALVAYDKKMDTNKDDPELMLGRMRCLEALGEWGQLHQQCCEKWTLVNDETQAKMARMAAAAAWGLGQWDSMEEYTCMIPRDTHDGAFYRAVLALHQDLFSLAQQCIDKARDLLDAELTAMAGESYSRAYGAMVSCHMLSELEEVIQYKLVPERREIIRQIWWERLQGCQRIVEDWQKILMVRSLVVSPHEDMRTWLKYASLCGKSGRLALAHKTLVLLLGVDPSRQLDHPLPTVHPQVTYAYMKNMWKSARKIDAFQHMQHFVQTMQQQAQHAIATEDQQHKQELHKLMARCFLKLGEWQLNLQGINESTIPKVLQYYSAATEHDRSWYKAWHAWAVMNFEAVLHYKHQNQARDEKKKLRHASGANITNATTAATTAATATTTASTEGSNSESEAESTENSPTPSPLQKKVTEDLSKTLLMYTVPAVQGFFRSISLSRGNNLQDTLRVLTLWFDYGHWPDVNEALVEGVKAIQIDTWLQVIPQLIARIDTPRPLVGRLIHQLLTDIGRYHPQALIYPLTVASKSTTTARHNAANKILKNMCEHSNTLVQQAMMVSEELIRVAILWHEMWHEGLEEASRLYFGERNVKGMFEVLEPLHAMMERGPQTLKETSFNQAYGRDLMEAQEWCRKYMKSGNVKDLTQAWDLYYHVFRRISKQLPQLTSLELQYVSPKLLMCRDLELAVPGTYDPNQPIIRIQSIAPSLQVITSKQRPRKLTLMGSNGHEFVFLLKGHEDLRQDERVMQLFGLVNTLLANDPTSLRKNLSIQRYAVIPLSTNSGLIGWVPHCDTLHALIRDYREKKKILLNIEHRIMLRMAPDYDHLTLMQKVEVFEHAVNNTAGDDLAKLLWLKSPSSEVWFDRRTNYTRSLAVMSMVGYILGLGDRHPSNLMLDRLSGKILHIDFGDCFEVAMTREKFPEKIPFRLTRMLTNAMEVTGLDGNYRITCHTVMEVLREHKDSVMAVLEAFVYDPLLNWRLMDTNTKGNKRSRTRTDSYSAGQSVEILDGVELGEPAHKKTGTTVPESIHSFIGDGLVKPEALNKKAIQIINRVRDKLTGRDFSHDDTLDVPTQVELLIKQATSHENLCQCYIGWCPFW
# TEST PROTOCOL: mTOR enzymatic test by TR-FRET (phosphorylation of GFP-4EBP1)
Assign IC50 to each entry below.
Report the value in nM with no unit label.

Per the records, this compound ( `COc1ccc(NC(=O)Nc2ccc(-c3nc(N4CC5CCC(C4)O5)nc4c3C(=O)N(C3CCOCC3)CC(C)(C)O4)cc2)cn1` ) has IC50 equal to 68

Sure, the documented IC50 for `CCNC(=O)Nc1ccc(-c2nc(N3CC4CCC(C3)O4)nc3c2C(=O)N(C2CCN(C)CC2)CC(C)(C)O3)cc1` is 245

`CCN1CC(C)(C)Oc2nc(N3[C@@H]4CC[C@H]3COC4)nc(-c3ccc(NC(=O)Nc4ccncc4F)cc3)c2C1=O` has a reported IC50 of 40

For record `COCCN1CC(C)(C)Oc2nc(N3CC4CCC(C3)O4)nc(-c3ccc(NC(=O)Nc4ccon4)c(F)c3)c2C1=O` the listed IC50 is 58

----------
# TARGET: PI3Kα (p110α/p85α) (Homo sapiens (Human), UniProt P42336)
# Sequence (P42336 whole entry): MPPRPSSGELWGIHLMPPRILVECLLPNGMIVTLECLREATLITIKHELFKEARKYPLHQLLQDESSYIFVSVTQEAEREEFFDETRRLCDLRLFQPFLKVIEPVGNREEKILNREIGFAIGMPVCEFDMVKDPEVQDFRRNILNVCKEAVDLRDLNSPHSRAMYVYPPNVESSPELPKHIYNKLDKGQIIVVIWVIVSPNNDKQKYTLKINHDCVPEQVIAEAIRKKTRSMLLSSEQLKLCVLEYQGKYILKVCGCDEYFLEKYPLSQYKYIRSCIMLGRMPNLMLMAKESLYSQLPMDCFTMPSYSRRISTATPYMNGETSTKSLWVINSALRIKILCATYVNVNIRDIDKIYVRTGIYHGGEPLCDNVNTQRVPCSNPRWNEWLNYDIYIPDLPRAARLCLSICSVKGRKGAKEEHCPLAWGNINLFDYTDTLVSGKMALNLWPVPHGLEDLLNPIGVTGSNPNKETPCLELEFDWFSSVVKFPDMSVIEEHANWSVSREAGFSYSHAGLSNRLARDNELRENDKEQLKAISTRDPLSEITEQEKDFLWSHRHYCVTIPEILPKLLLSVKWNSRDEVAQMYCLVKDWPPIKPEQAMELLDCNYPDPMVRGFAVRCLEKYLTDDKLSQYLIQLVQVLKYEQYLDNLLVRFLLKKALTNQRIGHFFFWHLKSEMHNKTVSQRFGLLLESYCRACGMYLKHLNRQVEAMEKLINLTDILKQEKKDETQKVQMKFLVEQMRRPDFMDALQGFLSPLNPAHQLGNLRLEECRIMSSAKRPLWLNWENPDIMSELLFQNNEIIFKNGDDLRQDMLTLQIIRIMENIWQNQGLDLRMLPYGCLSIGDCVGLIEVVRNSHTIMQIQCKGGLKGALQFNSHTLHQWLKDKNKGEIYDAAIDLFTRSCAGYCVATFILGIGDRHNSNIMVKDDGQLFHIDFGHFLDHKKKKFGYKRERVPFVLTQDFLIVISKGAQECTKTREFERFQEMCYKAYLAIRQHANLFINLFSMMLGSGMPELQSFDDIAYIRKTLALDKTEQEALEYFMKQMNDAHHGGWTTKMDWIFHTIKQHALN
# Sequence (P27986 whole entry partner): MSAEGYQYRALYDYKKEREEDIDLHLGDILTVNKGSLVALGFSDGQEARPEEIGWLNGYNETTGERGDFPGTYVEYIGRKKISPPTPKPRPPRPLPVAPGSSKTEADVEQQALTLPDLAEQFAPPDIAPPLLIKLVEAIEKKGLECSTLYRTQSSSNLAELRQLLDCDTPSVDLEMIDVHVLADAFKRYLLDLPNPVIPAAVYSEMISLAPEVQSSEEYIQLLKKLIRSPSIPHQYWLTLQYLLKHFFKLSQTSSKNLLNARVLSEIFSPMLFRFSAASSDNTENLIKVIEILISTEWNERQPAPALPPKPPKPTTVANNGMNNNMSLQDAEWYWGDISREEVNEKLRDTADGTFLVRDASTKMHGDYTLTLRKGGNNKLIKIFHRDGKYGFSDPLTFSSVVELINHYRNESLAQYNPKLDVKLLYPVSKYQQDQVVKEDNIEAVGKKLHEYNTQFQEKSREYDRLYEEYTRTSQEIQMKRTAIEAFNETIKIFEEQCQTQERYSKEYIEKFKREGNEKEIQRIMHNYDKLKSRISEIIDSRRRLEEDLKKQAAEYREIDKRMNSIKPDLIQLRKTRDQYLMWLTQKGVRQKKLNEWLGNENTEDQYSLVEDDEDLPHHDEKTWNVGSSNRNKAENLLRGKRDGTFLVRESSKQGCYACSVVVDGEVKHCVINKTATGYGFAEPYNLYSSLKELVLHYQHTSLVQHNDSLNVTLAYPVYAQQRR
# TEST PROTOCOL: PI3Kα enzymatic test by measuring the consumption of ATP
# Assay type: biochemical
ATTRIBUTE MEASURED: PI3Ka IC50

Result for `CCNC(=O)Nc1ccc(-c2nc(N3CCOCC3)nc3c2C(=O)N(CC)CCO3)cc1` , tested on PI3Kα (p110α/p85α) (Homo sapiens (Human), UniProt P42336), PI3Ka IC50: 2.159 µM

Considering `CCN1CC(C)(C)Oc2nc(N3CC4CCC(C3)O4)nc(-c3ccc(NC(=O)Nc4cnc(N5CCOCC5)cn4)c(F)c3)c2C1=O` , its PI3Ka IC50 with PI3Kα (p110α/p85α) (Homo sapiens (Human), UniProt P42336) was recorded as >10 µM

The compound `CCNC(=O)Nc1ccc(-c2nc(N3CC4CCC(C3)O4)nc3c2C(=O)N(CCC(=O)O)CC(C)(C)O3)cc1` on PI3Kα (p110α/p85α) (Homo sapiens (Human), UniProt P42336): PI3Ka IC50 was >10 µM

Form: item `CCN1CC(C)(C)Oc2nc(N3CC4CCC(C3)O4)nc(-c3ccc(NC(=O)Nc4ccc(N5CCCC5)nc4)c(F)c3)c2C1=O` ; test system PI3Kα (p110α/p85α) (Homo sapiens (Human), UniProt P42336); PI3Ka IC50: >10 µM

----------
# System: U87MG tumour cells
# TEST PROTOCOL: Test of in vitro proliferation of U87MG tumour cells
# Format: cell-based
# SETUP CONDITIONS: Homo sapiens, U-87 MG, 72 h, U87MG cells, 72 hours; read-out: U87 Cell Proliferation IC50
Entry class follows IC50: interval 1: < 100 nM; interval 2: ≥ 100 nM and < 300 nM; interval 3: ≥ 300 nM

Exam item: assign COc1ccc(NC(=O)Nc2ccc(-c3nc(N4CC5CCC(C4)O5)nc4c3C(=O)N(C)CC(C)(C)O4)cc2)nc1 [Example 54] to the correct category. interval 2

Hey, which category is CCN1CC(C)(C)Oc2nc(N3CC4CCC(C3)O4)nc(-c3ccc(NC(=O)OC[C@H](C)O)c(F)c3)c2C1=O [Example 20] in, do you know? interval 3

Returns: class label. Input: CCN1CC(C)(C)Oc2nc(N3CCOC[C@@H]3C)nc(-c3ccc(NC(=O)Nc4ccccc4F)cc3)c2C1=O [Example 202] interval 1

Into which category would you place CCN1CC(C)(C)Oc2nc(N3CC4CCC(C3)O4)nc(-c3ccc(NC(=O)Nc4ccc(C)cn4)cc3)c2C1=O [Example 34] ? interval 3

Lab note: which band did CCN1CC(C)(C)Oc2nc(N3CCOCC3)nc(-c3ccc(NC(=O)NOC)cc3)c2C1=O [Example 104] land in? interval 3

Which class does CCN1CC(C)(C)Oc2nc(N3CCOC[C@@H]3C)nc(-c3ccc(NC(=O)Nc4cnc(N5CCOCC5)cn4)cc3)c2C1=O [Example 232] fall in? interval 1

Categorize the following entry: CCN1CC(C)(C)Oc2nc(N3C4CCC3COC4)nc(-c3ccc(NC(=O)OCCO)cc3)c2C1=O [Example 65] interval 2

Which bin, given its IC50, does CCN1CC(C)(C)Oc2nc(N3C4CCC3COC4)nc(-c3ccc(NC(=O)Nc4cc(C)nc(C)c4)c(F)c3)c2C1=O [Example 241] occupy? interval 1

Category lookup for the compound Cn1ccc(NC(=O)Nc2ccc(-c3nc(N4CC5CCC(C4)O5)nc4c3C(=O)N(C3CCOCC3)CC(C)(C)O4)cc2)n1 [Example 16] interval 3

Hi there! Could you help me figure out the category for CCN1CC(C)(C)Oc2nc(N3CCOC[C@@H]3C)nc(-c3ccc(NC(=O)NC)c(F)c3)c2C1=O [Example 2] please? interval 2

State the band of CCN1CC(C)(C)Oc2nc(N3CC4CCC(C3)O4)nc(-c3ccc(NC(=O)Nc4cccc(OC)c4)cc3)c2C1=O [Example 127] interval 1

Please classify: Cc1cc(NC(=O)Nc2ccc(-c3nc(N4CC5CCC(C4)O5)nc4c3C(=O)N(C)CC(C)(C)O4)cc2F)ccn1 [Example 60] interval 1

Sort CCN1CC(C)(C)Oc2nc(N3CC4CCC(C3)O4)nc(-c3ccc(NC(=O)Nc4ccc(C(=O)NCC(C)(C)O)cc4)cc3)c2C1=O [Example 190] into one of the categories. interval 3

Please classify: CCN1CC(C)(C)Oc2nc(N3CC4CCC(C3)O4)nc(-c3ccc(NC(=O)Nc4ccc(N5CCN(C(=O)OC)CC5)cc4)c(F)c3)c2C1=O [Example 236] interval 1

Assign a bin to CCN1CC(C)(C)Oc2nc(N3C4CCC3COC4)nc(-c3ccc(NC(=O)Nc4ccc(N5CC6CCC(C5)O6)nc4)c(F)c3)c2C1=O [Example 259] interval 1

Class? Entry: CCN1CC(C)(C)Oc2nc(N3C[C@@H]4C[C@H]3CO4)nc(-c3ccc(NC(=O)NC)c(F)c3)c2C1=O [Example 206] interval 3

Category of CCN1CC(C)(C)Oc2nc(N3C4CCC3COC4)nc(-c3ccc(NC(=O)Nc4cc(OC)ccn4)cc3)c2C1=O [Example 79] : interval 3

For CN1CC(C)(C)Oc2nc(N3CC4CCC(C3)O4)nc(-c3ccc(NC(=O)Nc4ccccn4)cc3)c2C1=O [Example 39] , which IC50 bin applies? interval 2

Which bin, given its IC50, does C[C@H]1COCCN1c1ccc(NC(=O)Nc2ccc(-c3nc(N4CC5CCC(C4)O5)nc4c3C(=O)N(C)CC(C)(C)O4)cc2F)cn1 [Example 73] occupy? interval 2

Which class does CCN1CC(C)(C)Oc2nc(N3CC4CCC(C3)O4)nc(-c3ccc(NC(=O)Nc4ccccn4)cc3)c2C1=O [Example 33] fall in? interval 2

Sort COCCN1CC(C)(C)Oc2nc(N3CCOC[C@@H]3C)nc(-c3ccc(NC(=O)Nc4ccon4)cc3)c2C1=O [Example 180] into one of the categories. interval 2

Assign a bin to CCN1CC(C)(C)Oc2nc(N3CC4CCC(C3)O4)nc(-c3ccc(NC(=O)Nc4ccc(N5CCOC[C@H]5C)nc4)c(F)c3)c2C1=O [Example 30] interval 1

Textbook exercise: identify the category of the compound given here, CCN1CC(C)(C)Oc2nc(N3CCOCC3)nc(-c3ccc(NC(=O)OC)cc3)c2C1=O [Example 103] , according to its measured value. interval 3

# classify by IC50 band: CCN1CC(C)(C)Oc2nc(N3CCOC[C@@H]3C)nc(-c3ccc(NC(=O)OCCO)c(F)c3)c2C1=O [Example 209] interval 3

Class for CCN1CC(C)(C)Oc2nc(N3CC4CCC(C3)O4)nc(-c3ccc(NC(=O)Nc4ccnc(N5CC6CCC(C5)O6)c4)c(F)c3)c2C1=O [Example 260] ? interval 1

Place this compound in its band: CCN1CC(C)(C)Oc2nc(N3CC4CCC(C3)O4)nc(-c3ccc(NC(=O)Nc4cnc(OC)nc4)c(F)c3)c2C1=O [Example 136] interval 2
